test: HepG2 cytotoxicity, primary screen, cytotoxicity control for P. falciparum antimalarial project, cell-based, ATP luminescence (AID 2303); conditions: HepG2 viability, 24-48 h, at 10 µM, stronger effect = higher value;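 further: 0% = DMSO wells and 100% = digitonin-killed cells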
The entries below come with measured inhibition values attached.
Readout Type: inhibition (%)

>>> reported_measurement("CN(c1ccc(F)cc1)S(=O)(=O)c1ccc(Cl)c(C(=O)Nc2cccc(C#N)c2)c1")
5
>>> reported_measurement("Cc1cc(-c2ccc(CNC3CCN(C)CC3)cc2)ccc1S(=O)(=O)NCc1ccccc1")
52
>>> reported_measurement("CN1CCN(Cc2ccc(-c3ccc4c(Nc5ccc(Oc6ccccn6)cc5)ccnc4c3)o2)CC1")
13
>>> reported_measurement("CCn1ncc2c(NC3CCOCC3)c(CNC(=O)c3ccnn3C)c(C)nc21")
-11
>>> reported_measurement("Fc1ccc2nc(-c3ccc(-c4ccc(CN5CCN(c6cnccn6)CC5)cc4)s3)[nH]c2c1")
45
